- target or test system: Estrogen receptor (Homo sapiens) (UniProt P03372)
- Sequence (P03372 whole entry, looked up, the tested form may be a part): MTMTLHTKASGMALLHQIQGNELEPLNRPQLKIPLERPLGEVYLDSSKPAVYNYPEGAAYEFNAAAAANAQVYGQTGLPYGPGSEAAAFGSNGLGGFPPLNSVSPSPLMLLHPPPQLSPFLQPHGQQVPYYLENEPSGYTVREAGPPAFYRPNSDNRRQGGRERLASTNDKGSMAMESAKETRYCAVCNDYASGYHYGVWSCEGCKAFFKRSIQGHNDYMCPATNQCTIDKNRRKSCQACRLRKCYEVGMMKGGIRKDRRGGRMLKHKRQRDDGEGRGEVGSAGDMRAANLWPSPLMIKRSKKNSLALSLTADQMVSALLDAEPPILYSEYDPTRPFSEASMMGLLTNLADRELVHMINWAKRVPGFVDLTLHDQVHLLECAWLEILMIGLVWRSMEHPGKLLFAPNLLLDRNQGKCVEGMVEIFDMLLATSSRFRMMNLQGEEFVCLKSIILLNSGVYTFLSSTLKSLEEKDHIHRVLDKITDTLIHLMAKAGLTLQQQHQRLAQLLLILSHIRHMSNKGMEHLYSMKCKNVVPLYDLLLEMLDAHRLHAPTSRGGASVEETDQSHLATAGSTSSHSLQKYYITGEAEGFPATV
- assay overview: blockers of SRC-1 peptide recruitment to ERα – biochemical, TR-FRET, ERα LBD, estradiol-bound, primary screen (AID 629)
- condition summary: TR-FRET ER-alpha LBD / SRC-1 peptide, at 25.6 µM
Out of some 86,000 compounds screened, about 1,400 (1.6%) were called active. Rule as the data show it: active = inhibition above about 50%; inactive = the rest. Only a selection was taken, and actives are over-represented in it overall.
Classes used: active, inactive

smiles entry | class label
Cc1ccc(C(=O)COc2cccc(NC(=O)c3ccco3)c2)cc1 | inactive
CNC(=O)c1c(NC(=O)c2ccc(S(=O)(=O)N3CCOCC3)cc2)sc2c1CCC2 | active
CN(Cc1ccccc1)C(=O)COc1ccccc1 | inactive
COc1ccc(S(=O)(=O)N/N=C\c2ccc(OC)c(COc3ccc(C)cc3[N+](=O)[O-])c2)cc1 | inactive
CCN(CC)C(=O)CN(c1cccc(OC)c1)S(=O)(=O)c1ccc(C)cc1 | inactive
